Where these numbers come from: paper PMC11320734

Experiment: Single-dose pharmacokinetics in male Wistar rats
Assay type: in vivo
Details: rat, plasma, po, 26 mg kg^–1 p.o., read-out: Cmax
measured-property: Cmax (ng/mL)

[[record]]
smiles_structure = "Cn1c(C(C)(C)C)cc(=NC(=O)c2cc(C(F)(F)F)ccc2OCC(C)(C)O)n1CC1CCC1"
unit_of_measurement = "ng/mL"
quantitative_result = 1710


---

Experiment: Single-dose pharmacokinetics in mice
Type: in vivo
Conditions: mouse, plasma, po, 4 mg kg^–1 p.o.
measured-property: AUC(0-inf) (ng·h/mL)

[[record]]
smiles_structure = "Cn1c(C(C)(C)C)cc(=NC(=O)c2cc(C(F)(F)F)ccc2OCC(C)(C)O)n1CC1CCC1"
quantitative_result = 9300

